Target: Peptide deformylase (Escherichia coli)
Sequence (Q9JN24 whole entry): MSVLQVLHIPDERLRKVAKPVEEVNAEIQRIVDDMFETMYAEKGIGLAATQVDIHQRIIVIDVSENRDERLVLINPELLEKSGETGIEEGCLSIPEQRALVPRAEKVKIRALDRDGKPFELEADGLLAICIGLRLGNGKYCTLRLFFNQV
Test: Inhibition of NiCl2 stabilized Escherichia coli NCIM-2931 peptide deformylase using N-formyl-Met-Ala as substrate incubated for 30 mins by spectrophotometric method
Recorded pIC50 by entry
In simple prose, pIC50 is minus the logarithm base ten of a concentration in moles per litre.

Some compounds with recorded pIC50:
-- ask Report pIC50 on Peptide deformylase (Escherichia coli) for this entry: N#Cc1ccccc1-c1ccc(CNc2ccc(Cl)cc2[N+](=O)[O-])cc1
-- reply 4.55

-- ask Report pIC50 on Peptide deformylase (Escherichia coli) for this entry: N#Cc1ccccc1-c1ccc(CNc2ccccc2[N+](=O)[O-])cc1
-- reply 4.81

-- ask Report pIC50 on Peptide deformylase (Escherichia coli) for this entry: N#Cc1ccccc1-c1ccc(CNc2cnccn2)cc1
-- reply 4.72

Further cases:
-- ask Report pIC50 on Peptide deformylase (Escherichia coli) for this entry: N#Cc1ccccc1-c1ccc(CNn2cnnc2)cc1
-- reply 4.29

-- ask Report pIC50 on Peptide deformylase (Escherichia coli) for this entry: N#Cc1ccccc1-c1ccc(CNc2ccc(O)cc2)cc1
-- reply 4.46

-- ask Report pIC50 on Peptide deformylase (Escherichia coli) for this entry: N#Cc1ccccc1-c1ccc(CNc2ccccc2O)cc1
-- reply 4.48

meta.source: ChEMBL document CHEMBL3813657
